# System: DeltatarO mutant
# Test name: S. aureus survival, RN4220 and DeltatarO strains – OD600, teichoic acid synthesis inhibitors, primary screen (AID 463173)
# Experimental conditions: S. aureus RN4220 wild type/DeltatarO growth, OD600, 18 h, active compounds read low, screened at 18.75 µg/mL (by protocol)
Among all 52,000 compounds or so, about 4,300 (8.3%) were called active. For the sample, actives were picked, then their nearest neighbours and some compounds at random.
List of survival values.
Measurement label: survival (%)

molecule_smiles=COC(=O)Cn1c(C(=O)OC)cc2c1ccn2-c1ccc(F)cc1 measurement_label=survival recorded_value=93
molecule_smiles=Cc1ccc(OCC(=O)Nc2ccc(S(=O)(=O)Nc3ncccn3)cc2)c(C(C)(C)C)c1 measurement_label=survival recorded_value=47
molecule_smiles=O=C(Nc1ccccc1)c1ccncc1 measurement_label=survival recorded_value=97

----------
# Test system: DeltatarO mutant
# Test name: S. aureus survival, RN4220 and DeltatarO strains – OD600, teichoic acid synthesis inhibitors, primary screen (AID 463173)
# Experimental conditions: S. aureus RN4220 wild type/DeltatarO growth, OD600, 18 h, active compounds read low, screened at 18.75 µg/mL (by protocol)
Among all 52,000 compounds or so, about 4,300 (8.3%) were called active. Many of the other results were omitted from the sample, so actives are more common in it than they were.
Measurement label: survival (%)

molecule=CCCCN(CC)C(=O)Cn1c(=O)n(-c2ccc(OCC)cc2)c(=O)c2c3c(sc21)CCC3 target_system="DeltatarO mutant" recorded_value=78
molecule="O=C(NCc1cccc(Br)c1)C1CCCCN1S(=O)(=O)c1ccc(F)cc1 (configuration not stated)" target_system="DeltatarO mutant" recorded_value=89
molecule=CC(=O)c1cc2c(cc1N/C(=N/S(=O)(=O)c1ccc(C)cc1)c1ccc(F)cc1)OCO2 target_system="DeltatarO mutant" recorded_value=83
molecule=COc1ccc(CCNC(=O)CCCn2c(=O)c3cccn3c3ccccc32)cc1OC target_system="DeltatarO mutant" recorded_value=61
molecule=COc1ccccc1NC(=O)Cn1c(=O)n(-c2cccc(Cl)c2)c(=O)c2sc3ccccc3c21 target_system="DeltatarO mutant" recorded_value=103
molecule=CC(=O)c1cc2c(cc1N/C(=N/S(=O)(=O)c1ccc(C)cc1)c1ccccc1)OCO2 target_system="DeltatarO mutant" recorded_value=74
molecule=CCOc1ccc(-n2c(=O)c3c(C)c(C)sc3n(CC(=O)NCCc3ccccc3)c2=O)cc1 target_system="DeltatarO mutant" recorded_value=84
molecule=COc1ccc(OC(=O)CSc2nnc(-c3ccc(F)cc3)o2)cc1 target_system="DeltatarO mutant" recorded_value=109
molecule="CCN1C(=O)C2C(c3ccc(OC)cc3)NC(CC)(C(=O)OC)C2C1=O (configuration not stated)" target_system="DeltatarO mutant" recorded_value=56
molecule=O=C(NCc1ccco1)c1ccc2c(c1)N(Cc1cccc(Cl)c1)C(=O)c1ccccc1S2(=O)=O target_system="DeltatarO mutant" recorded_value=46
molecule="CC(=O)N1CCCC1c1nc2ccccc2n1Cc1ccccc1F (configuration not stated)" target_system="DeltatarO mutant" recorded_value=61
molecule=COc1ccc(CNC(=O)CCn2c(=O)c3cccn3c3ccc(F)cc32)cc1OC target_system="DeltatarO mutant" recorded_value=91
molecule=CCc1ccc(Cn2c(CNS(=O)(=O)c3ccc(C)c(C)c3)nc3cccnc32)cc1 target_system="DeltatarO mutant" recorded_value=81
molecule=Cc1ccc(-c2nnn3c2nc(NCCc2ccccc2)c2ccccc23)cc1 target_system="DeltatarO mutant" recorded_value=112
molecule="Cc1ccc(-c2nnn3c2nc(NCC(C)c2ccccc2)c2ccccc23)cc1 (configuration not stated)" target_system="DeltatarO mutant" recorded_value=91
molecule=CC(=O)c1cc2c(cc1N/C(=N/S(=O)(=O)c1ccc(Cl)cc1)c1ccc(F)cc1)OCO2 target_system="DeltatarO mutant" recorded_value=99
molecule="O=C(NC1CCCCC1)C(c1ccc(O)c(O)c1)N(C(=O)Cn1nnc2ccccc21)C1CCCCC1 (configuration not stated)" target_system="DeltatarO mutant" recorded_value=99
molecule=CCOC(=O)C1CCN(C(=O)Cc2cccc3ccccc23)CC1 target_system="DeltatarO mutant" recorded_value=82
molecule=CCOC(=O)c1cn(CC(=O)Nc2ccc(OC)cc2OC)nn1 target_system="DeltatarO mutant" recorded_value=83
molecule=CC(C)c1n[nH]c(=S)n1C target_system="DeltatarO mutant" recorded_value=84
molecule=CCN(CC)C(=O)Cn1c(=O)n(-c2ccc(Cl)cc2)c(=O)c2c3c(sc21)CCCCC3 target_system="DeltatarO mutant" recorded_value=89
molecule=CC(=O)Nc1ccc2nc3c(=O)[nH]c(=O)[nH]c3nc2c1 target_system="DeltatarO mutant" recorded_value=72

Values from PubChem BioAssay AID463173
